- Tested on: SK-MEL-2 melanoma
- assay name: NCI-60 one-dose screen, 48 h (100 = growth as untreated, 0 = no growth, -100 = all killed)
- protocol conditions: 10 µM unless noted
This is part of a sample that, as a whole, favours compounds with a hit. Of some 83,000 tested, about 20% had one in any assay.
quantity kind: growth (%)
Form entry: value (%) — number only.

> print(dat)
                                   compound        test.system  quantity.kind  unit.string  val
1  O=C(NCc1ccccc1)/C(=C/c1ccccc1)NC(=O)c1ccccc1  SK-MEL-2 melanoma         growth            %  102

Log: SK-MEL-2 melanoma, compound `COC(=O)c1ccccc1C(=O)c1c(C)cc(C)cc1C` , growth = 94

With SK-MEL-2 melanoma as the test system, `O=S1(=O)c2ccccc2Oc2ccccc21` showed growth of 100

Case `O=[n+]1ccn([O-])c2ccccc21` , SK-MEL-2 melanoma, growth recorded as 120

SK-MEL-2 melanoma data for CC(=O)NC(CCc1ccc(Cl)c(Cl)c1)c1cccc(O)c(=O)c1 (stereo not drawn) ; its growth: 17.8

// growth (SK-MEL-2 melanoma) for `CC(=O)Nc1ccc(O)c(C)c1` = 104

Record `O=C(O)c1c[nH]c2ccccc2c1=O` / SK-MEL-2 melanoma, growth recorded as 95.1

Measured growth (SK-MEL-2 melanoma), entry `CC(=O)CSc1ncnc2nc[nH]c12` : 95

Observed growth, SK-MEL-2 melanoma, CN(C)c1ccc(O)c2c1CC1CC3C(N(C)C)C(=O)C(C(N)=O)=C(O)C3(O)C(=O)C1=C2O (stereo not drawn) : 17.6

SK-MEL-2 melanoma assay, compound `c1ccc(Oc2c3ccccc3nc3ccccc23)cc1` , recorded growth = 39.9

Value (growth, SK-MEL-2 melanoma) for record `O=C(O)c1ccc([N+](=O)[O-])cc1S(=O)(=O)O` = 95.9

Measured growth (SK-MEL-2 melanoma), entry CC12CCC3c4ccc(O)cc4CCC3C1CCC2=O (stereo not drawn) : 98.7

SK-MEL-2 melanoma growth of `CCOC(=O)c1c(C)[nH]c(C)c1C=O` is 102
